Ref: patent US20100261660A1

Target: T1, Soluble CD28-Ig (extracellular domain of human CD28 fused to the Fc portion of human IgG1) (human, UniProt P10747 19-152, biotin-conjugated (NHS-biotin) in the FACS binding assays)
T1 construct: extracellular domain; bought from R&D Systems; also called sCD28-Ig; CD28-Ig Fc; not shown: Fc portion of human IgG1
Test: competitive FACS on transfected cells, biotin-sCD28-Ig with FITC-sCTLA-4-Ig; grade 0-2 of CD28/CTLA-4 ratio vs WT hB7-1
Measurement Kind: Binding Score
Give bare numbers.

| Binder | Result Value |
| --- | --- |
| Round 2 CD28C11-5 (ligand) ITPKSVTKRVKETVMLSCDYNTSTEELTSLRIYWQKDSKMVLAILPGKVQVWPEYKNRTITDMNDNPRIVILALRLSDSGTYTCVIQKPVLKGAYKLEHLTSVRLMIRADFPVPTINDLGNPSPNIRRLICSTSGGFPRPHLYWLENGEELNATNTTVSQDPGTELYMISSELDFNVTNNHSIACLIKYGELSVSQIFPWSKPKQEPPIDQLPFWVIIPVSGALVLTAVVLYCLACRHVARWKRTRRNEETVGTERLSPIYLGSAQSSG | 2 |
| Round 2 CD28BP-4 (ligand) ITPKSVTKRVKETVMLSCDYNTSTEELTSLRIYWQKDSKMVLAILPGKVQVWPEYKNRTITDMNDNPRIVILALRLSDSGTYTCVIQKPVLKGAYKLEHLASVRLMIRADFPVPTINDLGNPSPNIRRLICSTSGGFPRPHLCWLENGEELNATNTTVSQDPGTELYMISSELDFNVTNNHSIVCLIKYGELSVSQIFPWSKPKQEPPIDQLPFWVIIPVSGALVLTAVVLYCLACRHVARWKRTRRNEETVGTERLSPIYLGSAQSSG | 2 |
| Round 2 CD28B6-3 (ligand) ITPKSVTKRVKETVMLSCDYNTSTEELTSLRIYWQKDSKMVLAILPGKVQVWPEYKNRTITDMNDNPRIVILALRLSDSGTYTCVIQKPDLKGAYKLEHLTSVRLMIRADFPVPTINDLGNPSPNIRRLICSTSGGFPRPHLYWLENGEELNATNTTLSQDPETKLYMISSELDFNMTSNHSFLCLVKYGDLTVSQTFYWQESKPTPSANQHLTWTIIIPVSAFGISVIIAVILTCLTCRNAAIRRQRRENEVKMQSCSQSP | 1 |
| Round 2 CD28F3-1 (ligand) ITPKSVTKRVKETVMLSCDYNTSTEELTSLRIYWQKDSKMVLAILPGKVQVWPEYKNRTITDMNDNPRIVILALRLSDSGTYTCVIQKPDLKGAYKLEHLTSVRLMIRADFPVPTINDLGNPSPNIRRLICSTSGGFPRPHLYWLENGKELNATNTTLSQDPETKLYMISSELDFNMTSNHSFLCLVKYGDLTVSQTFYWQESKPTPSANQHLTWTIIIPVSAFGISVIIAVILTCLTCRNAAIRRQRRENEVEMQSCSQSP | 0 |

For every item in the list below, what is its measured Binding Score?
1. Round 2 CD28A8-4 (ligand) ITPKSVTKRVKETVMLSCDYNTSTEELTSLRIYWQKDSKMVLAILPGKVQVWPEYKNRTITDMNDNPRIVILALRLSDSGTYTCVIQKPVLKGAYKLEHLTSVRLMIRADFPVPTINDLGNPSPNIRRLICSTSGGFPRPHLYWLENGEELNATNTTVSQDPGTELYMISSELDFNVTNNHSIVCLIKYGELSVSQIFPWSKPKQEPPIDQLPFWVIIPVSGALVLTAVVLYCLACRHVARWKRTRRNEETVGTERLSPIYLGSAQSSG
2. Round 2 CD28BP-5 (ligand) ITPKSVTKRVKETVMLSCDYSTSTEELTSLRIYWQKDSKMVLAILPGKVQVWPEYKNRTITDMNDNPRIVILALRLSDKGTYTCVVQKPVLKGAYKLEHLTSVRLMIRADFPVPTINDLGNPSPNIRRLICSTSGGFPRPHLYWLENGEELNATNTTVSQDPGTELYMISSELDFNVTNNHSIVCLIKYGELSVSQIFPWSKPKQEPPIDQLPFWVIIPVSGALVLTAVVLYCLACRHVARWKRTRRNEETVGTERLSPIYLGSAQSSG
3. Round 2 CD28E2-4 (ligand) ITPKSVTKRVKETVMLSCDYSTSTEELTSLRIYWQKDSKMVLAILPGKVQVWPEYKNRTITDMNDNPRIVILALRLSDKGTYTCVIQKPVLKGAYKLEHLASVRLMIRADFPVPTINDLGNPSPNIRRLICSTSGGFPRPHLYWLENGEELNATNTTVSQDPGTELYMISSELDFNVTNNHSIVCLIKYGELSVSQIFPWSKPKQEPPIDQLPFWVIIPVSGALVLTAVVLYCLACRHVARWKRTRRNEETVGTERLSPIYLGSAQSSG
4. Round 2 CD28B4-3 (ligand) ITPKSVTKRVKETVMLSCDYNTSTEELTSLRIYWQKDSKMVLAILPGKVQVWPEYKNRTITDMNDNPRIVILALRLSDSGTYTCVIQKPVLKGAYKLEHLTSVRLMIRADFPVPTINDLGNPSPNIRRLICSTSGGFPRPHLYWLENGEELNATNTTLSQDPETKLYMISSELDFNMTSNHSFLCLVKYGDLTVSQTFYWQESKPTPSANQHLTWTIIIPVSAFGISVIIAVILTCLTCRNAAIRRQRRENEVEMQSCSQSP
5. Round 2 CD28BP-15 (ligand, also called clone R2 CD28BP-15; clone 15) ITPKSVTKRVKETVMLSCDYNTSTEELTSLRIYWQKDSKMVLAILPGKVQVWPEYKNRTITDMNDNPRIVILALRPSDSGTYTCVIQKPVLKGAYKLEHLASVRLMIRADFPVPTINDLGNPSPNIRRLICSTSGGFPRPHLYWLENGEELNATNTTVSQDPGTELYMISSELDFNVTNNHSIVCLIKYGELSVSQIFPWSKPKQEPPIDQLPFWVIIPVSGALVLTAVVLYCLACRHVARWKRTRRNEETVGTERLSPIYLGSAQSSG

1: 1; 2: 2; 3: 1; 4: 1; 5: 2
